B1: CAMK2B (parent)
chain: YQQIKAGAYDFPSPEWDTVTPEAK

Variants of: B1
assay summary: protein stability index of a GFP-peptide fusion (GPS, HEK-293T) (PSI 1-6); higher = more stable;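 further: lentivirally expressed fusions sorted by FACS into six bins by GFP to DsRed ratio, PSI derived from sequencing read proportions per bin multiplied by bin number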
cond: c terminus: a fixed tail appended
endpoint name: protein stability index
Response field accepts a number only; no unit should be typed.

State its protein stability index: P12R
2.34

Assign protein stability index to the following record: A8F
2.84

Complete the entry with protein stability index for Q3F
2.55

Read the entry A6Y and write its reported protein stability index.
3.16

Note down protein stability index recorded for P21M
3.31

Output protein stability index of K5P
3.71

Give me measured protein stability index, please, for this variant: D10S
2.39

Please report protein stability index for the following variant: P14E
4.47

Answer with reported protein stability index of P14T
3.82

Answer with the recorded protein stability index of T18V only.
3.1

For W16S , write its protein stability index.
4.58

Quote protein stability index reported for I4P please.
3.58

Give the measured protein stability index for Y9A
4.37

Consider the variant D10Y and give its recorded protein stability index.
1.79

// fetch protein stability index given entry A23E
4.05

Determine from records and report protein stability index for W16N
4.55

Please look at this variant and report its protein stability index: T20I
3.16

Tell me its protein stability index given I4R as the entry.
3.06

Determine from records and report protein stability index for S13H
3.25

Note protein stability index for the variant shown: I4A
3.46

Give recorded protein stability index. E15S
3.39

Tell me its protein stability index given I4C as the entry.
3.09
